I'd appreciate it if you could supply In vitro activity compared to native peptide (%) vs Glucagon values for the items below.
- measurement target: human GCG receptor (human, UniProt P47871 26-477)
- Sequence (P47871 26-477): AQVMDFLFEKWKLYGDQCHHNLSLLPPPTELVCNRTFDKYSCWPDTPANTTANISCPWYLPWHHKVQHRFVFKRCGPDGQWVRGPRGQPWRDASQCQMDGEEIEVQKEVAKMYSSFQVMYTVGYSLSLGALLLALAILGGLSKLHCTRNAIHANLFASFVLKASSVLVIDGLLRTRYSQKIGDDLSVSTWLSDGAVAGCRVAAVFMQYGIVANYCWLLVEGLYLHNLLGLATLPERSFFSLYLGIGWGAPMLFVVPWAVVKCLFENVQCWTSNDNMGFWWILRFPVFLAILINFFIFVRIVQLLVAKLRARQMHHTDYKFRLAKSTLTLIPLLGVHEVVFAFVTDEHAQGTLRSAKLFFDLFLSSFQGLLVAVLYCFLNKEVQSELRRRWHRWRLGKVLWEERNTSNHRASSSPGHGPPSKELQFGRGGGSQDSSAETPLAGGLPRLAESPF
- assay explanation: cell-based or functional assay
Bridge positions count the residues as written; N and C are the ends. Square brackets hold non-standard residues; d marks the D form. Ends that are not written are not given here. Aib = CC(C)(N)C(=O)O
Give the quantity in %, number only.

Task: Give the reported In vitro activity compared to native peptide (%) vs Glucagon for this binder. Y[Aib]QGTFTSDYSKALDEKAAKDFVNWLLDQHPSSGQPPPSC (bridge 16-20) [Triple agonist of SEQ ID NO: 102]
Output: 29.5

Task: Give the reported In vitro activity compared to native peptide (%) vs Glucagon for this binder. H[Aib]QGTFTSDYSKYLDEKAQKEFVQWLLDTC (bridge 16-20) [Triple agonist of SEQ ID NO: 30]
Output: 0.7

Task: Give the reported In vitro activity compared to native peptide (%) vs Glucagon for this binder. Y[Aib]QGTFTSDYSKYLDEKRAKDFVQWLLDHHPSSGQPPPSC (bridge 16-20) [Triple agonist of SEQ ID NO: 76]
Output: 47.6

From: patent US20230381281A1
